Target: T1, EsCas13d, nuclease-dead (Eubacterium siraeum, UniProt B0MS50, R295A;H300A;R849A;H854A)
T1 sequence: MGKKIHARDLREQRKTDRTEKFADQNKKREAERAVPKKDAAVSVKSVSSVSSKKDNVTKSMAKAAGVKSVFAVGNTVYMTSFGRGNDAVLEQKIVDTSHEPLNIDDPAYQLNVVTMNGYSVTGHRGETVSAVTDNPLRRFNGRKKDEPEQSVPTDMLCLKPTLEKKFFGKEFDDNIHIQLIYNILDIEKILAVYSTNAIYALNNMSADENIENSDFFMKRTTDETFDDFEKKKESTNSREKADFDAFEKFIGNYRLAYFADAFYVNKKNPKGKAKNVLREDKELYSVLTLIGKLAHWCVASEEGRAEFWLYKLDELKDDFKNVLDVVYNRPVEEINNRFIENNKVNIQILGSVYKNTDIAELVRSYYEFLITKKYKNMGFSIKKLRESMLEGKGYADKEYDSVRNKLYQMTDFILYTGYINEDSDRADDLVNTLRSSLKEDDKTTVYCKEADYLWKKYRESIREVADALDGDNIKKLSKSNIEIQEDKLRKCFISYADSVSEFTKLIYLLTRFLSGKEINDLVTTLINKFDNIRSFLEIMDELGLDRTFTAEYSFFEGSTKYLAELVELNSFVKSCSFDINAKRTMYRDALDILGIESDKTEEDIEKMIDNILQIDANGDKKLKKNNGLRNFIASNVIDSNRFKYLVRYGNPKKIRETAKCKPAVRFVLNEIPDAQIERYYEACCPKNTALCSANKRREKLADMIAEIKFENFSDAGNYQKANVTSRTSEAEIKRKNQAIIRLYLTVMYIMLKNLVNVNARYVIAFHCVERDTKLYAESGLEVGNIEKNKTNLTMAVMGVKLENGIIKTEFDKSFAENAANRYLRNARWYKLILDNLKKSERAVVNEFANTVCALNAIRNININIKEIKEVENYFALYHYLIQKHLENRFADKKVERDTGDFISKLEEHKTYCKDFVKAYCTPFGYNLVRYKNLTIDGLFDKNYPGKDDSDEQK
Experiment: crRNA (strand 1, pre-loaded); Mg2+; 40 mM Tris-HCl pH 7.5, 150 mM NaCl, 6 mM MgCl2, 1 mM DTT, 0.1% Tween-20, 0.2 mg/ml BSA; 25 C; 10 min per concentration, then washed
Conditions: tags: His6-TwinStrep-SUMO cleaved; N-terminal SNAP kept (SNAP-Surface 488); label: 3' end held by stalled T7 RNA polymerase
pKd: −log10 of the molar value.
Below: a set of entries, each annotated with reported pKd.

binder | pKd
target 1 C7G,U19A (mixed) RNA 1: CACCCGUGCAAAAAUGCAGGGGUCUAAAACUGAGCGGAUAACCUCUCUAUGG RNA 2: GGGAAUGGAUCCACAUCUACGAAUUCGUACCAAAGAGAGGUUAUGCGCUCACCGAGAUCGGAAGAGCACACGU | 7.25
target 3 G4C,A18G (mixed) RNA 1: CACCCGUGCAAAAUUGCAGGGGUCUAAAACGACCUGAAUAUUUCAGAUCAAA RNA 2: GGGAAUGGAUCCACAUCUACGAAUUCGUUUUUGGUCUGAAAUAUUCACGUCUGCAGAUCGGAAGAGCACACGU | 7.46
target 2 MT 5'PFS UGU 3'PFS CGC (mixed) RNA 1: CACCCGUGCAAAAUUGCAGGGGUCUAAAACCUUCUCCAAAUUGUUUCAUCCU RNA 2: GGGAAUGGAUCCACAUCUACGAAUUCUGUAGGAUGAAACAAUUUGGAGAAGCGCAGAUCGGAAGAGCACACGU | 7.73
target 1 insC 3' of 18,insC 3' of 13 (mixed) RNA 1: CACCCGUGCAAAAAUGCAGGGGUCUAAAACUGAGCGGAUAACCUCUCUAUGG RNA 2: GGGAAUGGAUCCACAUCUACGAAUUCGUACCAUACGAGAGCGUUAUCCGCUCACCGAGAUCGGAAGAGCACACGU | 7.31

Measured values drawn from paper PMC10786891 for this set.
